Biological target: T1, GFP-9S library array, motif 4 ND N98F;D124L (synthetic construct, N98F;D124L)
T1 chain: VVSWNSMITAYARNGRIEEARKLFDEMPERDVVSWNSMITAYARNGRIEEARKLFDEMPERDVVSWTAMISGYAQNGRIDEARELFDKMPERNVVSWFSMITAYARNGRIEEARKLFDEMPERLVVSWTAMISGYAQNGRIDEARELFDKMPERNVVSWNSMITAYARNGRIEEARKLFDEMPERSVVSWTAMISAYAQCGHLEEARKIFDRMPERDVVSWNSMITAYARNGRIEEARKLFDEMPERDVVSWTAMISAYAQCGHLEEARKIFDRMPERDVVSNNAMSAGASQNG
Test: high-throughput RNA pulldown from lysate on Ni-NTA beads; HRP: 50 mM Tris pH 8, 150 mM NaCl, 1 mM beta-mercaptoethanol, 50 ug/ml BSA, 3 ug/ml yeast RNA, 0.5% heparin; ITC and FP: Tris pH 8, 200 mM KCl, 5% glycerol; MST: 50 mM Tris pH 8, 200 mM NaCl, 1 mM DTT, BSA, heparin, 0.05% Tween 20
Conditions: tags: N-terminal His-eGFP; label: 5' IRDye 800CW
VALUE_KIND: pKd
Remember, pKd is on a log scale: it is -log10 of the molar concentration.

Q: pKd lookup needed for AUUAAACGUGA (ssRNA) [IR-rpoA-A] , thanks.
Result: 6.63

Next, consider the following binder.
Q: pKd lookup needed for AUUAUACGUGA (ssRNA) [IR-rpoA-U] , thanks.
Result: 6.78
